// provenance: the OligoGym collection

Target: MALAT1
Conditions: ASO, A431, 0.005 µM
After the bases stand the sugars from the 5' end (letter, count) and the backbone: PS all phosphorothioate, else s phosphorothioate and o phosphodiester by linkage. Methylation of C is not given here. k = constrained ethyl (cEt); d = 2'-deoxy (DNA)
recorded.endpoint: target mRNA inhibition (%)
Report the figure in % without appending any unit label.

### Prompt Record request: target mRNA inhibition value, item AGATTAAAGTGTGATA (sugars k3 d10 k3, PS)
### Response 27

### Prompt How about this sequence: TCAAACTAAGCTACTA (sugars k3 d10 k3, PS)
### Response -1

### Prompt How about this sequence: ATCAACAAAAGCCCAC (sugars k3 d10 k3, PS)
### Response -12

### Prompt How about this sequence: CACCACGAACTGCTGC (sugars k3 d10 k3, PS)
### Response 19

### Prompt How about this sequence: CCACGAACTGCTGCTT (sugars k3 d10 k3, PS)
### Response 54

### Prompt How about this sequence: ATAGTACTATAGCATC (sugars k3 d10 k3, PS)
### Response 30

### Prompt How about this sequence: GCCGCAGGGATTTGAA (sugars k3 d10 k3, PS)
### Response 31

### Prompt How about this sequence: GATATTTAAGAACTCC (sugars k3 d10 k3, PS)
### Response 38

### Prompt How about this sequence: CTCCATGGTTGTCCTA (sugars k3 d10 k3, PS)
### Response 39

### Prompt How about this sequence: AGGGATTTGAACCCCG (sugars k3 d10 k3, PS)
### Response -3

### Prompt How about this sequence: CATTTCTCCAATGGAC (sugars k3 d10 k3, PS)
### Response 12

### Prompt How about this sequence: AGCATTGGAGATCAGC (sugars k3 d10 k3, PS)
### Response 36

### Prompt How about this sequence: ATTTATAGACGGAGAA (sugars k3 d10 k3, PS)
### Response 9

---

Biological target: DGAT2
Conditions: ASO, HepG2, 0.12 µM
After the bases stand the sugars from the 5' end (letter, count) and the backbone: PS all phosphorothioate, else s phosphorothioate and o phosphodiester by linkage. Methylation of C is not given here. e = 2'-O-(2-methoxyethyl) (MOE); d = 2'-deoxy (DNA)
Rule: target mRNA inhibition of 40% or more gives Y; anything lower gives N.

### Prompt Hi team, for ATTTCTTTTAAATAACCCAC (sugars e5 d10 e5, PS) , is the recorded target mRNA inhibition at or above 40%?
### Response N

### Prompt How about this sequence: TGTGTGTCTTCACCAGCTGG (sugars e5 d10 e5, PS)
### Response Y

### Prompt How about this sequence: CCTCGAAGATCACCTGCTTG (sugars e5 d10 e5, PS)
### Response Y

### Prompt How about this sequence: TCACCAGGGCCTCCATGTAC (sugars e2 d13 e5, PS)
### Response N

### Prompt How about this sequence: CAGGGCCTCCATGTACATGG (sugars e5 d10 e5, PS)
### Response N

### Prompt How about this sequence: TCAGAGACTCAGCCGCACCC (sugars e2 d13 e5, PS)
### Response Y

### Prompt How about this sequence: TGACCAGGAAGGCCACACCT (sugars e5 d10 e5, PS)
### Response N

### Prompt How about this sequence: GGCATGGAGCTCAGAGACTC (sugars e3 d14 e3, PS)
### Response Y

### Prompt How about this sequence: TAGCCAGGTAAGGCCGTATG (sugars e2 d13 e5, PS)
### Response Y

### Prompt How about this sequence: TTACTCCACCTAGCTCATGG (sugars e5 d10 e5, PS)
### Response N

### Prompt How about this sequence: TGGGAACTTCTTGCTCACTT (sugars e5 d10 e5, PS)
### Response Y

### Prompt How about this sequence: GGCACAGAAAAGTGAGGCTT (sugars e5 d10 e5, PS)
### Response N

---

Target: ANGPTL2
Settings: ASO, 25 µM
After the bases stand the sugars from the 5' end (letter, count) and the backbone: PS all phosphorothioate, else s phosphorothioate and o phosphodiester by linkage. Methylation of C is not given here. l = locked nucleic acid (LNA); d = 2'-deoxy (DNA)
recorded.endpoint: target mRNA inhibition (%)
Report the figure in % without appending any unit label.

### Prompt Record request: target mRNA inhibition value, item CAGGCGTCTCTGGATGA (sugars l1 d14 l2, PS)
### Response 10.6

### Prompt How about this sequence: ATAACGCCCACTGAGA (sugars l1 d11 l4, PS)
### Response 39.7

### Prompt How about this sequence: GACTAACTGTTGAAATTG (sugars l3 d11 l4, PS)
### Response 30.8

### Prompt How about this sequence: GTTGATGATGCGGTTGTA (sugars l1 d15 l2, PS)
### Response 53.9

### Prompt How about this sequence: AGCTCAGTGGTGAGATGG (sugars l1 d15 l2, PS)
### Response 54.8

### Prompt How about this sequence: AACCCCAGAGGATATGT (sugars l1 d13 l3, PS)
### Response 58.9

### Prompt How about this sequence: ATGAAGTCAGTCAGAGCCT (sugars l1 d16 l2, PS)
### Response 22.6

### Prompt How about this sequence: AGTGAGAGGAAGTCAGGG (sugars l1 d15 l2, PS)
### Response 46.3

### Prompt How about this sequence: AAGTTGATAGTTTATCTCC (sugars l3 d14 l2, PS)
### Response 83.8

### Prompt How about this sequence: AGTTACTCTTAGCCAAA (sugars l3 d10 l4, PS)
### Response 84.8

### Prompt How about this sequence: CAGAACAATGGGGAGGA (sugars l3 d12 l2, PS)
### Response 51.1

### Prompt How about this sequence: ACAGAGACTAGGCATTT (sugars l3 d10 l4, PS)
### Response 83.9

### Prompt How about this sequence: CAGCTCATTGTTGAGCAG (sugars l2 d14 l2, PS)
### Response 7.91

### Prompt How about this sequence: ATTTTGAGATTCCCCCAA (sugars l1 d14 l3, PS)
### Response 20.9

### Prompt How about this sequence: CATTTTGAGATTCCCCC (sugars l1 d14 l2, PS)
### Response 14

### Prompt How about this sequence: AAGTTGATAGTTTATCTCCT (sugars l2 d16 l2, PS)
### Response 72

### Prompt How about this sequence: TGACCCCTGATTATTCA (sugars l1 d13 l3, PS)
### Response 4.06

### Prompt How about this sequence: ATAGCAGGGAGTGACC (sugars l2 d12 l2, PS)
### Response 26.5

### Prompt How about this sequence: ACATAATGTTTCATGCT (sugars l4 d11 l2, PS)
### Response 45.8

### Prompt How about this sequence: CTCCGGTAATGGCCCC (sugars l1 d12 l3, PS)
### Response 25.4

### Prompt How about this sequence: TATTAGCATCACTACTTT (sugars l4 d11 l3, PS)
### Response 52.1

### Prompt How about this sequence: ATCTTATTTTGTTTAACA (sugars l4 d10 l4, PS)
### Response 51.7

### Prompt How about this sequence: CCTTGCAAAATGGTGGTT (sugars l2 d14 l2, PS)
### Response 57.4

### Prompt How about this sequence: ACTGGTGAGGAGTTGTT (sugars l2 d13 l2, PS)
### Response 25.8

### Prompt How about this sequence: CTTAATGGGCAGTAATA (sugars l4 d9 l4, PS)
### Response 42.3

### Prompt How about this sequence: GAACCTCAATATCCTGC (sugars l1 d13 l3, PS)
### Response 72.6

### Prompt How about this sequence: AGTGTTTAAGAAGAAATG (sugars l4 d10 l4, PS)
### Response 54.8

### Prompt How about this sequence: GAGTTCATGTTGCGGC (sugars l1 d13 l2, PS)
### Response 24.9

### Prompt How about this sequence: GATGATGCGGTTGTAG (sugars l4 d10 l2, PS)
### Response 75.2

---

Biological target: KRAS
Details: ASO, A431, 0.185 µM
After the bases stand the sugars from the 5' end (letter, count) and the backbone: PS all phosphorothioate, else s phosphorothioate and o phosphodiester by linkage. Methylation of C is not given here. e = 2'-O-(2-methoxyethyl) (MOE); k = constrained ethyl (cEt); d = 2'-deoxy (DNA)
Exercise: state measured target mRNA inhibition for each of the sequences provided.

### Prompt Record request: target mRNA inhibition value, item CATTCAAAGTTCACAT (sugars kkddddddddkekekk, PS)
### Response 5%

### Prompt How about this sequence: GTGTTTATGCAATGTT (sugars k3 d10 k3, PS)
### Response 31%

### Prompt How about this sequence: GTGTTTATGCAATGTT (sugars kkddddddddddkeke, PS)
### Response 44%

### Prompt How about this sequence: GTGTTTATGCAATGTT (sugars kkkddddddddkekek, PS)
### Response 33%

### Prompt How about this sequence: TTTCTGATGTGACTCA (sugars k3 d10 k3, PS)
### Response 0%

### Prompt How about this sequence: TTGATTTGTCAGCAGG (sugars k3 d10 k3, PS)
### Response 41%

### Prompt How about this sequence: TGGTGTAACATAGGTT (sugars kkddddddddkekekk, PS)
### Response 11%

### Prompt How about this sequence: CCATTCAAAGTTCACA (sugars kkddddddddkekekk, PS)
### Response 0%
